So I've got a bunch of binders here, and I need their Relative activity of maturated deamidase (% initial rate) values.
- MEASURED TARGET: T1, Chryseobacterium sp-62563 deamidase polypeptide (second polypeptide, deamidase domain), wildtype (Chryseobacterium sp-62563)
- T1 sequence: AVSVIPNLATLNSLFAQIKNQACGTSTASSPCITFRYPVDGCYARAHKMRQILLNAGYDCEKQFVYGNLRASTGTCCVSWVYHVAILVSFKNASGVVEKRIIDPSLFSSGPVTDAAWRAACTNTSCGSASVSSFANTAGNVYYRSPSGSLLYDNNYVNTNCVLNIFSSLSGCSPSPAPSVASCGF
- ASSAY REMARKS: cell-based or functional assay

Relative activity of maturated deamidase (% initial rate) for Chryseobacterium sp-62563 propeptide K101G (protein) NQDPNLVAKESNETAMKDFGKTVPVGIEKEDGKFKISFMVTAQPYEIKDSKENAAYISMIKTAVENETPIHVFLKANTNEIAKVDKATDDDIRYFKSVFTGEVKEENRK ?
34

Then this binder: Chryseobacterium sp-62563 propeptide M39H (protein) NQDPNLVAKESNETAMKDFGKTVPVGIEKEDGKFKISFHVTAQPYEIKDSKENAAYISMIKTAVENETPIHVFLKANTNEIAKVDKATDDDIRYFKSVFTKEVKEENRK
> 100

What would you report for Chryseobacterium sp-62563 propeptide F99V (protein) NQDPNLVAKESNETAMKDFGKTVPVGIEKEDGKFKISFMVTAQPYEIKDSKENAAYISMIKTAVENETPIHVFLKANTNEIAKVDKATDDDIRYFKSVVTKEVKEENRK ?
> 100
